Value source: paper PMC8813930

biological target: BLM-dWH (Homo sapiens, UniProt P54132 642-1077); experiment: fluorescence anisotropy; no ATP; 5 mM MgCl2; 50 mM Tris-HCl pH 7.5, 50 mM NaCl, 1 mM DTT, 5 mM MgCl2, 50 µg/mL BSA, 25 °C; 10 nM labeled DNA in direct titrations; details: protein: recombinant; label: 3'-fluorescein; single strand
Sequence (P54132 642-1077): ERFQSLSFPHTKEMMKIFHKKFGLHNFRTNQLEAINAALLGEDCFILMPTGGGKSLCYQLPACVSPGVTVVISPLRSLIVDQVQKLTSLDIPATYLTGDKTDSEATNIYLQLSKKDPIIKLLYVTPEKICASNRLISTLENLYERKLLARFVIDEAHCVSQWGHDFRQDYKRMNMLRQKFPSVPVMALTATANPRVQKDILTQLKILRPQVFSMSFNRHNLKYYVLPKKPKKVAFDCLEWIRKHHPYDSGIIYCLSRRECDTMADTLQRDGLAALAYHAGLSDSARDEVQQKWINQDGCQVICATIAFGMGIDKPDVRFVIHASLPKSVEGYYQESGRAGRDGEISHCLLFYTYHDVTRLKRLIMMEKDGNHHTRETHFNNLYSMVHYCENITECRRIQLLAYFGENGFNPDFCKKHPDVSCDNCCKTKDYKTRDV
readout.type: Kd (µM)

ss54-FLU (ssDNA) DNA: TCCTTTTGATAAGAGGTCATTTTTGCGGATGGCTTAGAGCTTAATTGCGCAACG; 0.52
